test: The drug is tested on Bacteroides xylanisolvens strain: DSM18836 for biotransformation. The drug concentrations were measured before and after a 12-h incubation by liquid-chromatography-coupled mass spectrometry (LC–MS); conditions: 2 µM
endpoint.name: Bacterial Biotransformation

If you can, please state the reported Bacterial Biotransformation value of CCCC(=O)Nc1ccc(OCC(O)CNC(C)C)c(C(C)=O)c1 (stereo not given) .
Compound NOT metabolized

Endpoint output: Bacterial Biotransformation of CN1C[C@H](C(=O)N[C@]2(C)O[C@@]3(O)[C@@H]4CCCN4C(=O)[C@H](Cc4ccccc4)N3C2=O)C=C2c3cccc4[nH]cc(c34)C[C@H]21.CN1C[C@H](C(=O)N[C@]2(C)O[C@@]3(O)[C@@H]4CCCN4C(=O)[C@H](Cc4ccccc4)N3C2=O)C=C2c3cccc4[nH]cc(c34)C[C@H]21.O=C(O)C(O)C(O)C(=O)O [ERGOTAMINE TARTRATE] . Value?
Compound metabolized

Data request, read-out Bacterial Biotransformation, for C[C@H]1O[C@@H](O[C@H]2[C@@H](O)C[C@H](O[C@H]3[C@@H](O)C[C@H](O[C@H]4CC[C@@]5(C)[C@H](CC[C@@H]6[C@@H]5C[C@@H](O)[C@]5(C)[C@@H](C7=CC(=O)OC7)CC[C@]65O)C4)O[C@@H]3C)O[C@@H]2C)C[C@H](O)[C@@H]1O
Compound metabolized

Please look up its Bacterial Biotransformation: CCN(C)C(=O)Oc1cccc([C@H](C)N(C)C)c1.O=C(O)C(O)C(O)C(=O)O [RIVASTIGMINE TARTRATE]
Compound NOT metabolized

I have this compound here, CC(C)(C)NC(=O)[C@H]1CC[C@H]2[C@@H]3CC[C@H]4NC(=O)C=C[C@]4(C)[C@H]3CC[C@]12C [FINASTERIDE] , and I need its recorded Bacterial Biotransformation.
Compound metabolized

Entry COc1ccccc1OCC(O)CN1CCN(CC(=O)Nc2c(C)cccc2C)CC1 (stereo not given) : reported Bacterial Biotransformation = ?
Compound NOT metabolized

Quick one: Bacterial Biotransformation of CCCC(C)(COC(N)=O)COC(=O)NC(C)C (stereo not given) ?
Compound metabolized

Which measured Bacterial Biotransformation value corresponds to CCS(=O)(=O)CCn1c([N+](=O)[O-])cnc1C ?
Compound metabolized

Proceed to the following item.
Entry CCN(CC)CCOC(=O)C(Cc1cccc2ccccc12)CC1CCCO1.O=C(O)C(=O)O (stereo not given) [NAFRONYL OXALATE] has what Bacterial Biotransformation?
Compound NOT metabolized

###

assay: The drug is tested on Blautia luti strain: DSM14534 for biotransformation. The drug concentrations were measured before and after a 12-h incubation by liquid-chromatography-coupled mass spectrometry (LC–MS); type: ADME; set-up: dose 2 uM, timepoint 0 vs 12 hours; settings: 2 µM
endpoint.name: Bacterial Biotransformation

Data request, read-out Bacterial Biotransformation, for O=C([O-])C[C@H](O)C[C@H](O)/C=C/c1c(C2CC2)nc2ccccc2c1-c1ccc(F)cc1.O=C([O-])C[C@H](O)C[C@H](O)/C=C/c1c(C2CC2)nc2ccccc2c1-c1ccc(F)cc1.[Ca+2]
Compound NOT metabolized

May I ask what Bacterial Biotransformation has been recorded for C=C[C@H]1CN2CC[C@H]1C[C@H]2[C@H](O)c1ccnc2ccc(OC)cc12.C=C[C@H]1CN2CC[C@H]1C[C@H]2[C@H](O)c1ccnc2ccc(OC)cc12.O.O.O=S(=O)(O)O [QUININE SULFATE] ?
Compound NOT metabolized

The reported measurements were obtained from ChEMBL document CHEMBL5303573.
